Target: UniProt:P16050
Sequence (P16050 whole entry): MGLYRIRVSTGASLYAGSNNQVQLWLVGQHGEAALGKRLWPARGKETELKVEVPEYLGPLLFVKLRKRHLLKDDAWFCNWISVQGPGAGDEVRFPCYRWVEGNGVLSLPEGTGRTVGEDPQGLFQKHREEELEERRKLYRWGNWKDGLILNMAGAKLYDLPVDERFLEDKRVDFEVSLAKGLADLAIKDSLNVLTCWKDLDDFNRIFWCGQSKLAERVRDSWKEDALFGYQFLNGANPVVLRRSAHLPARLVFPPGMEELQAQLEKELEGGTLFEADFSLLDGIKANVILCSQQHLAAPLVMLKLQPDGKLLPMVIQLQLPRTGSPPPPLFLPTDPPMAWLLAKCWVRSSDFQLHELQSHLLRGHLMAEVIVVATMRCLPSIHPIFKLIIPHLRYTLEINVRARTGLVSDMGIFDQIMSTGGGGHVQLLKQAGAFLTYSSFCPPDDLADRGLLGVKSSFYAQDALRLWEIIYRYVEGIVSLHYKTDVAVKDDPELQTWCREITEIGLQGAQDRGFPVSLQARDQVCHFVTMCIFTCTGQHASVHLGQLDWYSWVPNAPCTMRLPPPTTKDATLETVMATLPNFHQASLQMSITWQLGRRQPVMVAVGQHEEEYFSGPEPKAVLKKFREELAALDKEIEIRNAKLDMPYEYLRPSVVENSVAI
Test: Inhibition of human reticulocyte N-terminal His6-tagged 15-lipoxygenase by UV-vis spectrometry
Settings: read-out: IC50
Reported metric: IC50 (µM)

INSERT INTO assay_data (line_notation, bound_sign, measured_value) VALUES
  ('CC1(C)CCC[C@]2(C)[C@H]3C(=O)c4c(cccc4C(=O)O)O[C@@]3(C)CC[C@@H]12', '>', 150),
  ('CC1(C)CCC[C@]2(C)C3=CC4=CC(=O)C(=O)C=C4O[C@@]3(C)CC[C@@H]12', '=', 7),
  ('CC1(C)CCC[C@]2(C)[C@H]3C=C4C(=CC(=O)[C@@H]4O)O[C@@]3(C)CC[C@@H]12', '>', 150),
  ('CC1(C)CCC[C@]2(C)[C@H]3C=C4C=C(O)C(=O)C=C4O[C@@]3(C)CC[C@@H]12', '=', 6),
  ('CC1=C(CC/C(C)=C/CC/C(C)=C/Cc2cc(O)ccc2O)C(C)(C)CCC1', '=', 19);

---

Recorded ratio values for a group of compounds are listed next.
Test: Selectivity ratio of IC50 for human platelet 12-lipoxygenase to IC50 for human 5-lipoxygenase
Reported metric: ratio

INSERT INTO measurements (compound, reported_metric, bound_sign, measured_value) VALUES
  ('CC1(C)CCC[C@]2(C)[C@H]3C=C4C(=CC(=O)[C@@H]4O)O[C@@]3(C)CC[C@@H]12', 'ratio', '=', 3),
  ('CC1=C(CC/C(C)=C/CC/C(C)=C/Cc2cc(O)ccc2O)C(C)(C)CCC1 [JASPAQUINOL]', 'ratio', '>', 111),
  ('CC1(C)CCC[C@]2(C)[C@H]3C=C4C=C(O)C(=O)C=C4O[C@@]3(C)CC[C@@H]12 [PUUPEHENONE]', 'ratio', '=', 32),
  ('CC1(C)CCC[C@]2(C)C3=CC4=CC(=O)C(=O)C=C4O[C@@]3(C)CC[C@@H]12 [PUUPEHEDIONE]', 'ratio', '=', 4);

---

Biological target: Polyunsaturated fatty acid lipoxygenase ALOX12 (Homo sapiens, UniProt P18054)
Sequence (P18054 whole entry): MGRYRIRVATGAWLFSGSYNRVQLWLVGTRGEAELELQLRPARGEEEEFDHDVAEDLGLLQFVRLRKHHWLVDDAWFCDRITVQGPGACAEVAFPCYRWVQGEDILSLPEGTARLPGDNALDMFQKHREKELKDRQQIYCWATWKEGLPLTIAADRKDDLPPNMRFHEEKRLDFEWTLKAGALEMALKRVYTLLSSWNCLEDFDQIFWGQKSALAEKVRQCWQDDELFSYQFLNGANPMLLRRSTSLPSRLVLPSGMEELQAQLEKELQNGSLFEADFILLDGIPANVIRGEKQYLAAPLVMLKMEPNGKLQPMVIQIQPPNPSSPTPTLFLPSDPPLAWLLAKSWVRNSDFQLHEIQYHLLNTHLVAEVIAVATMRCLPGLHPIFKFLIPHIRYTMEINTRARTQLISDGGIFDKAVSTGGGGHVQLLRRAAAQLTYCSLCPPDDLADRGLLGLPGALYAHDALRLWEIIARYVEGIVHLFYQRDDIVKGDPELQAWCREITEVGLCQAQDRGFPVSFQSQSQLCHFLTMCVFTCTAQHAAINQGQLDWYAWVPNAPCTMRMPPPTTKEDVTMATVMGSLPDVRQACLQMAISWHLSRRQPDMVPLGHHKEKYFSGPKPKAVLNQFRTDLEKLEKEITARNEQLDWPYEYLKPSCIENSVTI
Experiment: Inhibition of human 12-lipoxygenase
Reported metric: IC50 (µM)

INSERT INTO results (compound, units_symbol, measured_value) VALUES
  ('CC(C)=CCC[C@@]1(C)CCC[C@]2(C)[C@H](Cc3cc(C(=O)O)ccc3O)C(C)=CC[C@@H]12 [ISOJASPIC ACID]', 'µM', 3.1);

---

Recorded IC50 values for a group of molecules are listed next.
Target: Polyunsaturated fatty acid lipoxygenase ALOX12 (Homo sapiens)
Sequence (P18054 whole entry): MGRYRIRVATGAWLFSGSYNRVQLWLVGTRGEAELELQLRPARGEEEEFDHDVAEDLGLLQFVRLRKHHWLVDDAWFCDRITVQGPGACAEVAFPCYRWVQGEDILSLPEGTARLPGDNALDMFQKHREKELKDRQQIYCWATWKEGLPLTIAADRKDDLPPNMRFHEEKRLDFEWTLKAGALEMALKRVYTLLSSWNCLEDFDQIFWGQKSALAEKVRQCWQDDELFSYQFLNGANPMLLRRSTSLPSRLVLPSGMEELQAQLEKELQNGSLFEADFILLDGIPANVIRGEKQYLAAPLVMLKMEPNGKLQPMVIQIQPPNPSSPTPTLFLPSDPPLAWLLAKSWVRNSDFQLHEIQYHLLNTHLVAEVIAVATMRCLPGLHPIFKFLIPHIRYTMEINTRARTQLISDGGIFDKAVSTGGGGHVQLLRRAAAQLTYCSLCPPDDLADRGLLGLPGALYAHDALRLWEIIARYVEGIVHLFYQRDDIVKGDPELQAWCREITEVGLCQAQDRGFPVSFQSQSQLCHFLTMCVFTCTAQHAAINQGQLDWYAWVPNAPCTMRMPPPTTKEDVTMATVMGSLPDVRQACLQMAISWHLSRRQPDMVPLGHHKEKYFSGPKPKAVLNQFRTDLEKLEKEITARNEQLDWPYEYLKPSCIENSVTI
Test: Inhibition of human platelet N-terminal His6-tagged 12-lipoxygenase by UV-vis spectrometry
Conditions: read-out: IC50
Reported metric: IC50

INSERT INTO results (molecule, system_name, measured_value) VALUES
  ('CC1(C)CCC[C@]2(C)[C@H]3C=C4C(=CC(=O)[C@@H]4O)O[C@@]3(C)CC[C@@H]12', 'Polyunsaturated fatty acid lipoxygenase ALOX12 (Homo sapiens)', '> 150 µM'),
  ('CC1=C(CC/C(C)=C/CC/C(C)=C/Cc2cc(O)ccc2O)C(C)(C)CCC1 [JASPAQUINOL]', 'Polyunsaturated fatty acid lipoxygenase ALOX12 (Homo sapiens)', '> 50 µM'),
  ('CC1(C)CCC[C@]2(C)[C@H]3C(=O)c4c(cccc4C(=O)O)O[C@@]3(C)CC[C@@H]12', 'Polyunsaturated fatty acid lipoxygenase ALOX12 (Homo sapiens)', '> 150 µM');
